All values here come from PubChem BioAssay AID449762.

experiment: M. tuberculosis growth inhibition, HTS (AID 449762);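 also: bacterial growth assessed after seven days of incubation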; details: M. tuberculosis H37Rv growth inhibition, 7H9 media; at 25 µM; hits give high values
Among all 330,000 compounds or so, about 1,900 (0.58%) were called active. Roughly 4% stayed inconclusive and do not appear here. The list is a sample of the results. Potency and affinity values are given separately.
Property: inhibition (%)
Give bare numbers, in %.

CC(C)(C)N1CSC(=S)N(Cc2ccccc2)C1 : 65

Items follow; give inhibition for each.
1. CC(NC(=O)/C(C#N)=C/c1cccs1)c1ccccc1 (stereo unspecified)
2. COc1cc(OC)cc(C(=O)N[C@H](C(=O)OCC(=O)c2c[nH]c3ccccc23)C(C)C)c1
3. CCOC(OCC)P(=O)(C(C)C)C(C)C

Result:
1. -1.56
2. -5.93
3. -4.61

Items follow; give inhibition for each.
1. O=C(NCCN1CCOCC1)NC1(C(F)(F)F)Oc2ccc(Cl)cc2O1 (stereo unspecified)
2. Cc1ccc(S(=O)(=O)N[C@H](C(=O)N2CCC(C(=O)N[C@@H](CCC(N)=O)C(=O)O)CC2)C(C)C)cc1
3. CCN(c1ccccc1)S(=O)(=O)c1ccc(OC)c(N=N/C(C(=O)Nc2ccccc2)=C(/C)O)c1
4. CCOC(=O)CC(=O)CSc1nccc(-c2cccnc2)n1
5. O=C(O)CCC(=O)NNC(=O)CCC1CCCCC1
6. CC(C)N1CSC(=S)N(Cc2ccccc2)C1
7. C[C@H](NC(=O)c1[nH]cnc1C(=O)Nc1ccon1)c1ccccc1

Result:
1. 66.9
2. -8.96
3. 10.8
4. 2.54
5. 0.82
6. 64.3
7. -0.305
